Source of measurements: ChEMBL document CHEMBL3865785

Species on record: Homo sapiens
assay-overview: Selectivity ratio of Ki for D1-like dopaminergic receptor (unknown origin) in striatal membranes to Ki for D2-like dopaminergic receptor (unknown origin) in striatal membranes
Assay type: cell membranes
Cut-off 5 on Ratio Ki: below means t, at or above means f.

1. C=CCN1CCc2cc(O)c(O)cc2C1/C=C/C (configuration not stated) | f
2. C=CCN1CCc2cc(OC)c(OC)cc2C1/C=C/c1ccccc1 (configuration not stated) | f
3. C/C=C/C1c2cc(O)c(O)cc2CCN1C (configuration not stated) | f
4. C/C=C/C1NCCc2cc(O)c(O)cc21 (configuration not stated) | f
5. C/C=C/C1NCCc2cc(OC)c(OC)cc21 (configuration not stated) | f
6. COc1cc2c(cc1OC)C(/C=C/c1ccccc1)NCC2 (configuration not stated) | t

As a next step, examine the compound that follows.
Exam item: Dear reviewer, please state whether C=CCN1CCc2cc(OC)c(OC)cc2C1/C=C/C (configuration not stated) has Ratio Ki strictly beneath 5.
Marked response: t

* * *

Entries and their Ki
assay-overview: Displacement of [3H]raclopride from D2-like dopaminergic receptor (unknown origin) in striatal membrane measured after 1 hr by liquid scintillation counting method
Type: cell membranes, Homo sapiens, Striatum
API: value field is a number in nM; no unit string.

Completed entries (count: 2):
1. C=CCN1CCc2cc(OC)c(OC)cc2C1/C=C/C (stereo not drawn) | 13800
2. C/C=C/C1c2cc(O)c(O)cc2CCN1C (stereo not drawn) | 72

Exam item: Given the compound CN1CCc2cc(O)c(O)cc2C1/C=C/c1ccccc1 (stereo not drawn) , what is its reported Ki?
Marked response: 57

* * *

assay-overview: Displacement of [3H]SCH23390 from D1-like dopaminergic receptor (unknown origin) in striatal membrane measured after 1 hr by liquid scintillation counting method
Type: cell membranes, Homo sapiens, Striatum
Below, each entry is listed alongside its reported Ki.
Lab book: enter the figure in µM, no units written.

# count of solved cases: 5
1) C/C=C/C1NCCc2cc(OC)c(OC)cc21 (stereo unspecified) | 45.6
2) COc1cc2c(cc1OC)C(/C=C/c1ccccc1)N(C)CC2 (stereo unspecified) | 6.2
3) C=CCN1CCc2cc(O)c(O)cc2C1/C=C/c1ccccc1 (stereo unspecified) | 6.04
4) CN1CCc2cc(O)c(O)cc2C1/C=C/c1ccccc1 (stereo unspecified) | 3.19
5) C=CCN1CCc2cc(O)c(O)cc2C1/C=C/C (stereo unspecified) | 1.71

Now look at this entry.
Exam item: I am curious: what Ki value has been reported for Oc1cc2c(cc1O)C(/C=C/c1ccccc1)NCC2 (stereo unspecified) ?
Marked response: 9.57
